experimentalSystem: Recombinant human liver GK1 (GST-GK) (Homo sapiens, UniProt P35557)
Construct: made in house; host or cells: E. coli
Sequence (P35557 1-466 isoform P35557-2): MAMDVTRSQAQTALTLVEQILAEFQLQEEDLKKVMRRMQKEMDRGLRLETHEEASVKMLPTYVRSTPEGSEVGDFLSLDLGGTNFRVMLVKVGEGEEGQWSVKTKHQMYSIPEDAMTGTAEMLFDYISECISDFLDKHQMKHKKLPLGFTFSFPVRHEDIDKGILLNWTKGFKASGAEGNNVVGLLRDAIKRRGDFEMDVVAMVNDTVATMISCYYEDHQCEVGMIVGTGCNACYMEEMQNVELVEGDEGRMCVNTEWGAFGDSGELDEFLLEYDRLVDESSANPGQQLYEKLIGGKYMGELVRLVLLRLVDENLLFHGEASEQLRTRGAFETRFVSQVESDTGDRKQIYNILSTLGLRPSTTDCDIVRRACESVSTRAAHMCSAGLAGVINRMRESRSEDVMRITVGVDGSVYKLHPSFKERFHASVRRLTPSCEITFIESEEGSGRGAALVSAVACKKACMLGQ
assay: Glucokinase in vitro assay (G6PDH-coupled, NADH generation)
Format: biochemical
particulars: concentration of activator that produced a 50% increase in the activity of GK; 5 mM D-glucose, 30° C., pH 7.1
quantityKind: SC1.5 average (µM)

Consider the worked cases shown below.
[
  {
    "molecule": "COc1ccccc1Oc1ccn(C(CC(C)C)C(=O)Nc2ccn(C)n2)c(=O)c1 (stereo not shown) [Example 18]",
    "resultValue": 8.1
  },
  {
    "molecule": "CC(C)CC(C(=O)Nc1ccn(C)n1)n1ccc(Oc2ccc(F)cc2F)cc1=O (stereo not shown) [Example 11]",
    "resultValue": 22.5
  }
]

[I] CC(C)CC(C(=O)Nc1ccn(C)n1)n1ccc(Oc2cccc3ccccc23)cc1=O (stereo not shown) [Example 14]
[II] CC(C)CC(C(=O)Nc1ccn(C)n1)n1ccc(Oc2ccccc2)cc1=O (stereo not shown) [Example 3]
[Q] Task for the reader: decide whether I or II has the larger SC1.5 average. Mark your answer with the label of the selected entry.
[A] II

[A] CC(C)CC(C(=O)Nc1ccn(C)n1)n1ccc(Oc2ccccc2C(F)(F)F)cc1=O (stereo not shown) [Example 6]
[B] CC(C)CC(C(=O)Nc1ccn(C)n1)n1ccc(Oc2cccnc2)cc1=O (stereo not shown) [Example 8]
[Q] Sorting by SC1.5 average in descending order, would A or B appear first? Lab note: record the label of whichever item you select.
[A] B
(B: 26.1 µM, A: 11.4 µM)

[P] CC(C)CC(C(=O)Nc1ccn(C)n1)n1ccc(Oc2cccc(F)c2F)cc1=O (stereo not shown) [Example 1]
[Q] CC(C)CC(C(=O)Nc1ccn(C)n1)n1ccc(Oc2c(F)cccc2F)cc1=O (stereo not shown) [Example 5]
[Q] Between P and Q , whose recorded SC1.5 average is greater? Please respond with the label that marks your chosen entry.
[A] P
